The values you see were collected from ChEMBL document CHEMBL1123265.

- System: Rattus norvegicus
- TEST: Maximum fall in blood pressure was evaluated at an oral dose of 10 mg/kg in (SHR) spontaneous hypertensive rats
- Assay type: functional
Lab note - cut at 40% for Max fall in blood pressure: TRUE if strictly below, FALSE if not.

COMPOUND	GROUP
COC(=O)c1ccc2c(c1)C(N1CCCC1=O)[C@H](O)C(C)(C)O2 (stereo partly specified)	FALSE
CC1(C)Oc2ccc(C#N)cc2C(N2CCSCC2=O)[C@@H]1O (stereo partly specified)	TRUE
CC1(C)Oc2cc([N+](=O)[O-])ccc2C(N2CCCC2=O)[C@@H]1O (stereo partly specified)	FALSE
CC1(C)C=C(N2CCCCCC2=O)c2cc(C#N)ccc2O1	TRUE
CC1(C)Oc2ccc(Cl)cc2C(N2CCCC2=O)[C@@H]1O (stereo partly specified)	TRUE
CC1(C)Oc2ccccc2C(N2CCCC2=O)[C@@H]1O (stereo partly specified)	TRUE
